assay_summary: Solubility in aqueous phosphate buffer (pH 7.4) at 20c was determined
Type: physicochemical
metric_name: solubility (µg/mL)

[
  {
    "mol": "COc1cc2ncnc(N3CCN(C(=O)Nc4ccsc4)CC3)c2cc1OC",
    "observed_measurement": 2
  },
  {
    "mol": "COc1cc2ncnc(N3CCN(/C(S)=N\\Cc4cccnc4)CC3)c2cc1OC.Cl.Cl",
    "observed_measurement": 2.2
  }
]

====

assay_summary: Plasma concentration was determined after 1 hr at a dose 30 mg/kg administered orally to rat-16
Format: ADME, organism-based
Parameters: dose 30 mg/kg, route oral
applied_conditions: po
metric_name: concentration at 1 h (ng/mL)
Quick reminder: number only, in ng/mL, skip the unit.

# get_value(readout='concentration at 1 h', item= `COc1cc2ncnc(N3CCN(C(=S)NCc4ccco4)CC3)c2cc1OC` )
3700
